Kindly supply the reported IC50 values for the records listed here.
tested on: chloroquine-sensitive (CQS) strain of P. falciparum (D10); test: in vitro antiplasmodial activity, chloroquine-sensitive strain D10; assay type: cell-based, Plasmodium falciparum; conditions: Plasmodium falciparum, D10, CQS strain D10; tested in triplicate on one occasion; hydrophobic samples added as suspension; read-out: D10: IC50
One number for each entry, in µM.

COc1ccccc1[C@@H](O)[C@@H](CO)NC(C)(C)C [Compound 12a]
98.7
CCN(CC)CC(Cn1cc(-c2ccc(OC)cc2)nn1)NCc1ccccc1 (stereo not shown) [Compound 16e]
171

Okay, next one:
The reported IC50 of the compound CC(C)(C)N[C@H](CO)[C@H](O)c1ccccc1F [Compound 12b] was 60.5
